- Test system: CCRF-CEM leukemia
- assayMethodText: NCI-60 one-dose screen, 48 h
- particulars: 10 µM unless noted
The panel holds about 83,000 compounds, 20% with a hit somewhere; the sample as a whole holds those more often. Active and inactive are the calls of the source. How the source made its calls: active means growth percent below 10; inactive means the rest.
Give your call using only these classes: active, inactive

Worked set:
CC/C(=C(/c1ccc(Cl)cc1)c1ccc(OCCCN(C)C)cc1)c1ccc(OC)cc1
inactive
COc1cc(OCc2cccc(-c3ccc4c(c3)OCCO4)c2C)cc(OC)c1C=O
inactive
COc1ccc2c(c1)C(c1c[nH]c3ccccc13)(c1c[nH]c3ccccc13)CCO2
inactive
C=C(C)Cn1c(SCC(=O)c2cccs2)nc2sc3c(c2c1=O)CCCC3
inactive
CCN(CC)CCOc1ccc(/C(=C(\C)Cc2ccc(OC)cc2)c2ccc(O)cc2)cc1
active
COc1ccc(C(=O)/C=C/c2ccc(C)cc2)cc1S(N)(=O)=O
inactive
COc1cc2ncnc(Nc3ccc(S(=O)(=O)Nc4cc(C)on4)cc3)c2cc1OCCCN1CCOCC1
inactive
C#CC(F)(F)[C@]1(O)CCC2C3CCC4=CC(=O)CCC4=C3[C@@H](c3ccc(N(C)C)cc3)C[C@@]21C (some centres undefined)
inactive
O=C(Nc1ncc(Cc2ccccc2)s1)c1ccc2c(c1)OCCO2
inactive
C=CN(C(=O)N1CCN(c2cc3c(cc2F)c(=O)c(C(=O)O)cn3C2CC2)CC1)c1nc(-c2ccc(C)cc2)cs1
active

Query: recorded result category for C=C(C)[C@@H]1CC[C@]2(COC(=O)c3cccnc3)CC[C@]3(C)[C@H](CC[C@@H]4[C@@]5(C)CCCN(C(=O)c6cccnc6)C(C)(C)[C@@H]5CC[C@]43C)[C@@H]12 in this test
inactive

# lookup: test call for CNC1=C(Br)C(=O)c2c(C(=O)OC)c(C)nc(C)c2C1=O
inactive

Given CN1CCN(c2ccc(Nc3ncc4[nH]c(=O)n(Cc5ccccc5N)c4n3)cc2)CC1 , state the outcome it received in this test.
inactive

What was the test verdict on CCCN1C2CCC1/C(=C\c1ccc(OC)cc1)C(=O)/C2=C/c1ccc(OC)cc1 ?
inactive

###

growth reference
- Tested on: U251 CNS
- assayMethodText: NCI-60 one-dose screen, 48 h (100 = growth as untreated, 0 = no growth, -100 = all killed)
- particulars: 10 µM unless noted
About 83,000 compounds went through this panel and 20% of them were active in at least one assay; those are over-represented in the sample as a whole.
Field: numeric (%). Do not append units.

CCOC(=O)c1ccc2c(c1)[n+](=O)c(C(C)=O)c(C(F)(F)F)n2[O-]
6.13

Given CCOC(=O)CCC(=O)P(=O)(O)O , state its recorded growth.
102

###

Quick reference for growth among some compounds
- Tested on: NCI-H23 lung
- assayMethodText: NCI-60 one-dose screen, 48 h (100 = growth as untreated, 0 = no growth, -100 = all killed)
- particulars: 10 µM unless noted
This is part of a sample that, as a whole, favours compounds with a hit. Of some 83,000 tested, about 20% had one in any assay.
Report only the number, with the unit % understood.

Known results for compounds:
Cc1ccc(NC(=O)c2ccc(Nc3ncnc4c3cnn4-c3cccc(F)c3)cc2)cc1
99.6
O=C(Oc1ccccc1)c1cc(O)c(O)c(O)c1
72.3
c1ccc2[nH]c(-c3ccc(-c4nccc5c4[nH]c4ccccc45)cc3)nc2c1
69.1
O=C(/C=C/c1ccc([N+](=O)[O-])cc1)c1cccc(Nc2nc(Nc3ccccc3)nc(Nc3ccccc3)n2)c1
60.9
Cc1nn(C)c2ncnc(Nc3ccccc3Br)c12
101

Endpoint output: growth of O=C(/C=C/c1ccco1)Nc1ncc(Cc2ccc(F)cc2)s1 . Value?
23.4

Entry N#C/C(=C/C=C/c1ccccc1)S(=O)c1ccccc1 (centres undefined) : reported growth = ?
-36.6

Need growth of C#CCOC(=O)C(N)CSSCC(N)C(=O)O (centres undefined) , thanks.
103

Need growth of [2H]C([2H])([2H])Oc1c(F)cccc1/C=C/C(=O)/C=C(O)/C=C/c1cccc(F)c1OC([2H])([2H])[2H] , thanks.
86.1

Fill in the blank: the reported growth of O=C1NCCN1/N=C/c1c(Cl)n(Cc2ccc(Cl)cc2)c2ccccc12 is ____.
98.2

Given COc1cc(OC)cc(C(=O)Nc2cnc(Nc3ccc(N4CCOCC4)nc3)nc2Oc2ccc(C(F)(F)F)cc2)c1 , state its recorded growth.
82

Entry Clc1ccc(C2=Nn3c(nnc3-c3cc(Cl)cc(Cl)c3Cl)SC2)cc1 : reported growth = ?
65.8

growth lookup needed for O=C(Cn1cc(CSc2nc3ccccc3o2)nn1)Nc1ccc([N+](=O)[O-])cc1 , thanks.
97.8

# lookup: growth of CCOC(=O)/C=C1\S/C(=N\Nc2cc(=O)[nH]c3ccc(OC)cc23)N(c2ccccc2)C1=O
94

###

- System: SNB-19 CNS
- assayMethodText: NCI-60 one-dose screen, 48 h
- particulars: 10 µM unless noted
About 83,000 compounds went through this panel and 20% of them were active in at least one assay; those are over-represented in the sample as a whole. Calls of active or inactive are those of the source. How the source made its calls: active means growth percent below 10; inactive means the rest.
Output constraint: value belongs to 1 for active, 0 for inactive

Please review the following examples before continuing.
CN1CCN(Cc2ccc(NC(=O)c3cncc(C#Cc4cnc(N)c5ccc(C#N)cc45)c3)cc2C(F)(F)F)CC1
0
COc1ccc(N/N=C/c2ccc3c(c2)Sc2ccccc2N3C)cc1
0
COc1ccc(C2CC(=O)Oc3c(OC)c4c(c(OC)c32)OCO4)cc1 (configuration not stated)
0
c1ccc2[nH]c(-c3ccc(-c4nccc5c4[nH]c4ccccc45)cc3)nc2c1
0
CCOC(=O)c1c(C)c2c(n1Cc1ccccc1)CSc1cc(C#N)c(=O)[nH]c1-2
0

Dear all, I need the recorded test outcome for COc1ccc(/C=C2/CCc3cc4ccc(OC)cc4[o+]c32)c(O)c1 , thank you.
0

Which outcome was entered for the compound C#Cc1c(I)n(C2OC(CO[Si](C)(C)C(C)(C)C)C3OC(C)(C)OC32)c(=O)[nH]c1=O (configuration not stated) in this test?
0

In this assay, the call recorded for COC(=O)[C@@H](Cc1c[nH]c2ccccc12)NC[C@@H](O)CN1C(=O)/C(=C\c2cc(OC)c(OC)c(OC)c2)c2ccccc21 was what?
0

Tell me the assay call for Cc1ccc(NC(=O)c2ccc(Nc3ncnc4c3cnn4-c3cccc(F)c3)cc2)cc1 please.
0

Tell me the assay call for Clc1ccc(C2=Nn3c(nnc3-c3cc(Cl)cc(Cl)c3Cl)SC2)cc1 please.
0

Dear colleague, could you share the recorded outcome for C=C(CNCCc1ccc(O)cc1)[C@@H]1CC[C@]2(CO)CC[C@]3(C)[C@H](CC[C@@H]4[C@@]5(C)CCC(N)C(C)(C)[C@@H]5CC[C@]43C)[C@@H]12 (some centres not stated) when you have a moment?
1

Lab log entry: COC(=O)c1ccc(-n2cc(CCCOS(=O)(=O)c3ccc(F)cc3)nn2)cc1 — outcome as called in the assay?
0

Dear colleague, could you share the recorded outcome for COc1cc(C2=Nc3c(N)nc(N)nc3NC(c3cccc(Nc4ccnc5cc(C(F)(F)F)ccc45)c3)C2)cc(OC)c1OC (configuration not stated) when you have a moment?
0

###

- System: HOP-62 NSCLC
- assayMethodText: NCI-60 one-dose screen, 48 h (100 = growth as untreated, 0 = no growth, -100 = all killed)
- particulars: 10 µM unless noted
About 83,000 compounds went through this panel and 20% of them were active in at least one assay; those are over-represented in the sample as a whole.
measuredEndpoint: growth (%)
Please state the figure in %; there is no need to write the unit.

Would you please look over these solved cases?
O=C1NCCS(=O)(=O)/C1=C\C=C\c1cccc(C(F)(F)F)c1
35.8
C=C1CC[C@@H]2[C@](C)(COC(C)=O)[C@H](OC(C)=O)CC[C@@]2(C)[C@@H]1CC(Nc1ccc(S(=O)(=O)Nc2nccc(C)n2)cc1)C1=CCOC1=O (stereo not given in full)
156
Cc1ccc(Nc2cc(N)nc(N)n2)cc1
101

For the molecule shown here, Cc1nc2sc(C(=O)Nc3ccccc3)c(N)c2cc1C(O)c1ccccc1 (stereo not given) , give the reported growth.
39.6

###

- System: MCF7 breast
- assayMethodText: NCI-60 one-dose screen, 48 h (100 = growth as untreated, 0 = no growth, -100 = all killed)
- particulars: 10 µM unless noted
This is part of a sample that, as a whole, favours compounds with a hit. Of some 83,000 tested, about 20% had one in any assay.
Give YES when the value for growth is at least 80%. Give NO when it is less.

CCOc1ccc(-c2cc(C3(S(=O)(=O)c4ccc(C)cc4)CC=CC3)on2)cc1
YES
CC1=C(C(=O)c2ccccc2)C(c2ccc3c(c2)OCO3)NC(=S)N1 (stereo not given)
NO
CC(=O)CC(=O)c1ccccc1.[Cu+2]
NO

API: above_or_equal(metric=growth, cutoff=80%) for item N/C(=N\c1nc2ccccc2s1)NC(=O)Nc1ccccc1
NO
